B1: library; numbered along this chain (parent)
chain: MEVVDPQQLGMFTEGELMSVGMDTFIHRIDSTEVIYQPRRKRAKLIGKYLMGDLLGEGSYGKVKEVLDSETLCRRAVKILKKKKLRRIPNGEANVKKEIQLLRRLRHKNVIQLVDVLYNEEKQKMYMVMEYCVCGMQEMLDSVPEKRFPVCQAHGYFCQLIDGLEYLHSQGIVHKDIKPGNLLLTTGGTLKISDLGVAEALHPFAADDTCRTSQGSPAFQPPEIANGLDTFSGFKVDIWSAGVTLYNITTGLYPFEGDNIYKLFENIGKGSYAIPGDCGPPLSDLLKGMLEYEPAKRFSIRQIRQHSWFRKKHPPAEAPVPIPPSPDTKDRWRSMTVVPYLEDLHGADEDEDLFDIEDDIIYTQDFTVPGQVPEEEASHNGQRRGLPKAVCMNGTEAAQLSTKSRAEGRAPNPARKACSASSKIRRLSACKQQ

variants of: B1; assay: STK11 functional score (HeLa growth suppression), rescaled enrichment; synonymous median = 1, nonsense median = 0 (normalised score); settings: with HeLa; variant type: missense
OUTCOME MEASURE: STK11 functional score
Keep the answer to the number alone.

*Q* Complete the entry with STK11 functional score for `A417P`
*A* 1.2

*Q* Complete the entry with STK11 functional score for `E14Q`
*A* 1.35

*Q* Complete the entry with STK11 functional score for `V372E`
*A* 1.23

*Q* Complete the entry with STK11 functional score for `I356Q`
*A* 1.58

*Q* Complete the entry with STK11 functional score for `P373Q`
*A* 1.55

*Q* Complete the entry with STK11 functional score for `D365G`
*A* 1.55

*Q* Complete the entry with STK11 functional score for `N247F`
*A* 0.863

*Q* Complete the entry with STK11 functional score for `A410I`
*A* 1.54

*Q* Complete the entry with STK11 functional score for `L190G`
*A* 0.073

*Q* Complete the entry with STK11 functional score for `Q371D`
*A* 1.43

*Q* Complete the entry with STK11 functional score for `Y118H`
*A* 1.14

*Q* Complete the entry with STK11 functional score for `E130R`
*A* 0.369

*Q* Complete the entry with STK11 functional score for `D53S`
*A* 1.51

*Q* Complete the entry with STK11 functional score for `K388H`
*A* 1.12

*Q* Complete the entry with STK11 functional score for `H202I`
*A* 1.31

*Q* Complete the entry with STK11 functional score for `F219G`
*A* 0.713

*Q* Complete the entry with STK11 functional score for `L353V`
*A* 1.42

*Q* Complete the entry with STK11 functional score for `S31Q`
*A* 1.37

*Q* Complete the entry with STK11 functional score for `P369C`
*A* 1.31

*Q* Complete the entry with STK11 functional score for `S299W`
*A* 1.24

*Q* Complete the entry with STK11 functional score for `L160S`
*A* 0.508

*Q* Complete the entry with STK11 functional score for `T328L`
*A* 1.03

*Q* Complete the entry with STK11 functional score for `D141V`
*A* 1.18

*Q* Complete the entry with STK11 functional score for `G394F`
*A* 1.17

*Q* Complete the entry with STK11 functional score for `T32L`
*A* 1.16

*Q* Complete the entry with STK11 functional score for `A414M`
*A* 1.56

*Q* Complete the entry with STK11 functional score for `Q382R`
*A* 1.48

*Q* Complete the entry with STK11 functional score for `P149Y`
*A* -0.0036

*Q* Complete the entry with STK11 functional score for `I260N`
*A* 1.67

*Q* Complete the entry with STK11 functional score for `H379M`
*A* 1.52

*Q* Complete the entry with STK11 functional score for `I424T`
*A* 1.49

*Q* Complete the entry with STK11 functional score for `E165K`
*A* 0.973

*Q* Complete the entry with STK11 functional score for `N109T`
*A* 0.928

*Q* Complete the entry with STK11 functional score for `D352Y`
*A* 0.953

*Q* Complete the entry with STK11 functional score for `L50S`
*A* 1.09

*Q* Complete the entry with STK11 functional score for `M11T`
*A* 1.23

*Q* Complete the entry with STK11 functional score for `N119K`
*A* 1.18

*Q* Complete the entry with STK11 functional score for `T32Y`
*A* 0.666

*Q* Complete the entry with STK11 functional score for `D284C`
*A* 0.513

*Q* Complete the entry with STK11 functional score for `G227T`
*A* 1.67

*Q* Complete the entry with STK11 functional score for `P144H`
*A* 0.422

*Q* Complete the entry with STK11 functional score for `K287N`
*A* 1.49

*Q* Complete the entry with STK11 functional score for `I238F`
*A* 0.0789

*Q* Complete the entry with STK11 functional score for `K124S`
*A* 0.355

*Q* Complete the entry with STK11 functional score for `T13G`
*A* 0.27

*Q* Complete the entry with STK11 functional score for `S283V`
*A* 1.17
